Molecular target: LdtMt1 (Mycobacterium tuberculosis)
Sequence (O53638 32-251 limits assumed): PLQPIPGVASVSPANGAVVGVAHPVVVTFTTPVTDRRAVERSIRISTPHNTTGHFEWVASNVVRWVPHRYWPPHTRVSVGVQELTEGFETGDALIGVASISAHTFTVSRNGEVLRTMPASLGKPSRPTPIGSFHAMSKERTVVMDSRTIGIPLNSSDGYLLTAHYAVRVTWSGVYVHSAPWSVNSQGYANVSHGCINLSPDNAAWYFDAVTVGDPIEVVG
measured_endpoint: pKd
Hey, just a heads up that pKd is the negative log base 10 of the concentration in molar.

Qu. Could you tell me which pKd is on file for "C[C@@H](O)[C@H]1C(=O)N2C(C(=O)O)=C([C@H]3CCCO3)S[C@H]12" ?
Ans. 5.40

---

Target: LdtMt2, wild-type (L,D-transpeptidase of M. tuberculosis; fragment without N-terminal transmembrane domain, N-terminal His6, TEV-cleavable) (Mycobacterium tuberculosis, UniProt I6Y9J2)
Construct: Fragments excluding the putative transmembrane domain were cloned, expressed and purified; His6 (TEV-cleavable) (N)
Sequence (I6Y9J2 56-408 limits assumed): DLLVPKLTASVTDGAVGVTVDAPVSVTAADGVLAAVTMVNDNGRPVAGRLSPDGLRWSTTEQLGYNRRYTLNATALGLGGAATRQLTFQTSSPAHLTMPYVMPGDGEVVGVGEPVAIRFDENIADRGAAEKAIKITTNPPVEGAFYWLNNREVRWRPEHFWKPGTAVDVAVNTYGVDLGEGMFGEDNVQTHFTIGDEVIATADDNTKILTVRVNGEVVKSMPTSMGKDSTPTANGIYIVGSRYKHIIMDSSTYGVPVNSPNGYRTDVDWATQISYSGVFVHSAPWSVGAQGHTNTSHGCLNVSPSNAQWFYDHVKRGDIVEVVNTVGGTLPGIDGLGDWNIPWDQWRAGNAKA
Experiment: biochemical
// values below are reported Kd
Give your result in µM as a bare value.

Example cases with answers are listed next.
{"smiles_text": "CC(=O)OCC1=C(C(=O)O)N2C(=O)[C@@H](NC(=O)Cc3cccs3)[C@H]2SC1", "Kd / µM": 200}
{"smiles_text": "C[C@@H](O)[C@H]1C(=O)N2C(C(=O)O)=C(SCC(=O)OC3CCCCC3)[C@H](C)[C@H]12", "Kd / µM": 5.65}

Qu. Could you tell me which Kd is on file for "CCCOC(=O)CSC1=C(C(=O)O)N2C(=O)[C@H]([C@@H](C)O)[C@H]2[C@H]1C" ?
Ans. 2.8

Qu. Now give it for "COC(=O)CSC1=C(C(=O)[O-])N2C(=O)[C@H]([C@@H](C)O)[C@H]2[C@H]1C.[Na+]" too.
Ans. 155
